Each entry below carries its reported half-life.
Assay: Half life in mouse at 20 mg/kg, iv administered as bolus dose by band-culture bioassay
Settings: in vivo
State just the number; it will be interpreted in min.

Worked examples follow.
{"columns": ["compound", "result_type", "measured"],
 "data": [
  ["CCO/N=C(\\C(=O)N[C@@H]1C(=O)N2C(C(=O)[O-])=C(/C=C/C[n+]3ccc(-c4c[nH]c(/C([O-])=N/C#N)c4C)cc3)CS[C@H]12)c1csc(N)n1.[Na+]", "half-life", 51.6],
  ["CCO/N=C(\\C(=O)N[C@@H]1C(=O)N2C(C(=O)[O-])=C(/C=C/C[n+]3ccc(-c4c[nH]c(/C([O-])=N/C#N)c4)cc3)CS[C@H]12)c1csc(N)n1.[Na+]", "half-life", 55.8],
  ["CCO/N=C(\\C(=O)N[C@@H]1C(=O)N2C(C(=O)[O-])=C(/C=C/C[n+]3cccc4cc(/C([O-])=N/C#N)[nH]c43)CS[C@H]12)c1csc(N)n1.[Na+]", "half-life", 38.4],
  ["CCO/N=C(\\C(=O)N[C@@H]1C(=O)N2C(C(=O)[O-])=C(/C=C/C[n+]3ccc(-c4cc(/C([O-])=N/C#N)[nH]n4)cc3)CS[C@H]12)c1csc(N)n1.[Na+]", "half-life", 61.8],
  ["CCO/N=C(\\C(=O)N[C@@H]1C(=O)N2C(C(=O)[O-])=C(C[n+]3ccc(-c4cc(/C([O-])=N/C#N)[nH]n4)cc3)CS[C@H]12)c1nc(N)sc1Cl.[Na+]", "half-life", 35.4]
]}

Now take the following compound into account.
Briefly, half-life measured for `CCO/N=C(\C(=O)N[C@@H]1C(=O)N2C(C(=O)[O-])=C(/C=C/C[n+]3ccc(-n4ccc(/C([O-])=N/C#N)n4)cc3)CS[C@H]12)c1csc(N)n1.[Na+]` : 52.2

Origin of the recorded values: ChEMBL document CHEMBL3875165
